tested on: Escherichia coli TOP10; assay: shrunken log2 fold change of peptide-encoding DNA abundance (4.5 h post-induction vs induction); higher = less antimicrobial activity (less host growth inhibition); conditions: time post-induction: 4.5 h; library: site-saturation at positions 5, 18, 19, 20;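 also: peptides expressed intracellularly from a pBAD plasmid library in pooled LB shake-flask culture, induced with 0.3% L-arabinose, DNA abundance read by NGS, three biological replicates, DESeq2 with apeglm shrinkage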
Endpoint Name: shrunken log2 fold change
The answer should be a number; do not append a unit.

Example entries begin here.
# Macromolecule Sequence, Study System, Endpoint Name, Number
measured = [
    ("RRIRWRPPRLPRPRPRPNLSPRP", "Escherichia coli TOP10", "shrunken log2 fold change", -0.197),
    ("RRIRMRPPRLPRPRPRPCDYPRP", "Escherichia coli TOP10", "shrunken log2 fold change", -0.163),
    ("RRIRYRPPRLPRPRPRPRIIPRP", "Escherichia coli TOP10", "shrunken log2 fold change", -0.457),
    ("RRIRVRPPRLPRPRPRPRERPRP", "Escherichia coli TOP10", "shrunken log2 fold change", 0.578),
]

Now consider a different sequence.
Request: Give shrunken log2 fold change for this entry on Escherichia coli TOP10: RRIRARPPRLPRPRPRPMHWPRP
Result: 0.548
